Consider the following binders and their measured cGMP response rel. to 1 uM CNP22; 1 uM peptide, NIH3T3 cells readings.
Target: T1, NPR-B (natriuretic peptide receptor B), murine, expressed endogenously on NIH3T3 cells (murine, UniProt Q6VVW5 17-1047)
T1 sequence (looked up): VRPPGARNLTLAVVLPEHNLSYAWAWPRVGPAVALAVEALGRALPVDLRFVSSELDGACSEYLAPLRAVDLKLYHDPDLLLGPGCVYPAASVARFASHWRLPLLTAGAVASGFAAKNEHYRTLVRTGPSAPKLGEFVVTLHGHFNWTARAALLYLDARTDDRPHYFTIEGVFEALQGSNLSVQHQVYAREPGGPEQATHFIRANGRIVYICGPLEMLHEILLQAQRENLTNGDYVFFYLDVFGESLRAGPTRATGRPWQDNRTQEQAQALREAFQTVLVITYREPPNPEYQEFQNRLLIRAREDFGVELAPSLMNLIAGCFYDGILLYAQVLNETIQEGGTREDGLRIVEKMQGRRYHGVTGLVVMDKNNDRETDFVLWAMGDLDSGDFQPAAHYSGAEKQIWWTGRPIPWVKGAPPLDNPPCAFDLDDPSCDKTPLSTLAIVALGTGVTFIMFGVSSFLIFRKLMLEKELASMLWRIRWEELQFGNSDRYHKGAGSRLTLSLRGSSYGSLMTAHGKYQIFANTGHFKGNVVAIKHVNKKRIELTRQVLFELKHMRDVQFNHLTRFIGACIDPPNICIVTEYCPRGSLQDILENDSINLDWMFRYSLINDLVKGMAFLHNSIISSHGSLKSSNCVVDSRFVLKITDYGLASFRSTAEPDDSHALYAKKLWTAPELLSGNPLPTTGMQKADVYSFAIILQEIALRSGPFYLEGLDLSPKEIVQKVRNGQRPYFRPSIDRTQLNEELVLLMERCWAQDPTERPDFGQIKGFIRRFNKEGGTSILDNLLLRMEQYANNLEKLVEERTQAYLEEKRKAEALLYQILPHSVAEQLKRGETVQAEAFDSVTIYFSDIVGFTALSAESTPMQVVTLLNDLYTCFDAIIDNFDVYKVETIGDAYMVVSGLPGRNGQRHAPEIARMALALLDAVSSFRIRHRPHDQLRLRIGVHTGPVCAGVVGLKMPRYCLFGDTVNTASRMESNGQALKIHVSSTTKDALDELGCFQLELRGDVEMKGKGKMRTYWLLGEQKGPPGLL
Assay: cell-based or functional assay
Where no end group is shown, it is not given here. [ ]: non-standard residue; d: D form. Cit = NC(=O)NCCC[C@H](N)C(=O)O

Guide cases for cGMP response rel. to 1 uM CNP22; 1 uM peptide, NIH3T3 cells, answers given:
{"binder": "GLSRGCFGLKLDRIGSMSGLGC [CNP22, K4R]", "reported measurement": "121 rel. to 1 uM CNP22 (100)"}
{"binder": "GLSRGCFGLKLDRIGQMSGLGC [CNP22, K4R, S16Q]", "reported measurement": "116 rel. to 1 uM CNP22 (100)"}
{"binder": "GLSRGCFGLKLDRIGSMSGVGC [CNP22, K4R, L20V]", "reported measurement": "8 rel. to 1 uM CNP22 (100)"}

Problem: // cGMP response rel. to 1 uM CNP22; 1 uM peptide, NIH3T3 cells lookup, key: GLSRGCFGL[Cit]LDRIGSMSGLGC (ends and bridges not checked) [CNP22, K4R, K10Cit]
Result: 33 rel. to 1 uM CNP22 (100)

Problem: Using the record for GLSRGCFGLKLDRIGSMSGLSC [CNP22, K4R, G21S] , report its cGMP response rel. to 1 uM CNP22; 1 uM peptide, NIH3T3 cells.
Result: 39 rel. to 1 uM CNP22 (100)

Problem: What cGMP response rel. to 1 uM CNP22; 1 uM peptide, NIH3T3 cells value was documented for this binder, GLSRGCFGLKLDRIGSMSGLTC [CNP22, K4R, G21T] ?
Result: 21 rel. to 1 uM CNP22 (100)

Problem: If you can, please state the reported cGMP response rel. to 1 uM CNP22; 1 uM peptide, NIH3T3 cells value of GLSRGCFGLKLDRIGSMSRLGC [CNP22, K4R, G19R] .
Result: 84 rel. to 1 uM CNP22 (100)

Problem: Entry GLSRGCFGLSLDRIGSMSGLGC [CNP22, K4R, K10S] : reported cGMP response rel. to 1 uM CNP22; 1 uM peptide, NIH3T3 cells = ?
Result: 53 rel. to 1 uM CNP22 (100)

Problem: Returns the measured cGMP response rel. to 1 uM CNP22; 1 uM peptide, NIH3T3 cells for the input binder. Input: GLSRRCFGLKLDRIGSMSGLGC [CNP22, K4R, G5R]
Result: 80 rel. to 1 uM CNP22 (100)

Problem: Which cGMP response rel. to 1 uM CNP22; 1 uM peptide, NIH3T3 cells is reported for this binder? ELSEGCFGLKLDRIGSMSGLGC [CNP22, G1E, K4E]
Result: 54 rel. to 1 uM CNP22 (100)

Problem: What does the data say about its cGMP response rel. to 1 uM CNP22; 1 uM peptide, NIH3T3 cells? Entry: GLSRGCFGLKLDRINSMSGLGC [CNP22, K4R, G15N]
Result: 41 rel. to 1 uM CNP22 (100)

Problem: cGMP response rel. to 1 uM CNP22; 1 uM peptide, NIH3T3 cells lookup needed for GLSRGCFGLKLDRISSMSGLGC [CNP22, K4R, G15S] , thanks.
Result: 71 rel. to 1 uM CNP22 (100)

Problem: Please look up its cGMP response rel. to 1 uM CNP22; 1 uM peptide, NIH3T3 cells: GLSRGCFSLKLDRIGSMSGLGC [CNP22, K4R, G8S]
Result: 86 rel. to 1 uM CNP22 (100)

Problem: For GLSRGCFGLKLDRIGSMSSLGC [CNP22, K4R, G19S] , what is its reported cGMP response rel. to 1 uM CNP22; 1 uM peptide, NIH3T3 cells?
Result: 63 rel. to 1 uM CNP22 (100)
